// provenance: the supplement of paper PMC10646978

# Test system: RAW-Dual (murine macrophage reporter line)
# procedure text: NF-kB reporter (SEAP) activity fold change vs agonist alone; higher = enhanced NF-kB activity
# experimental parameters: modulator concentration 10 µM; agonist: CpG ODN 1826 0.5 ug/mL
Items are presented alongside their recorded NF-kB reporter.
# print the numeric value only

* O=C(NN=Cc1cccc(Cl)c1Cl)c1cc(O)cc(O)c1 | 1.02
* CNC(CC(=O)O)C(=O)O (stereo not drawn) | 0.986
* O=c1[nH]cnc2scc(-c3ccc(Br)cc3)c12 | 0.924
* CC1COc2c(N3CCN(C)CC3)c(F)cc3c(=O)c(C(=O)O)cn1c23 (stereo not drawn) | 1.46
* CCOC(=O)C1=C(C)NC(C)=C(C(=O)OC)C1c1cccc(Cl)c1Cl (stereo not drawn) | 0.824

Form: compound = C=CCNC(=O)CN(Cc1ccccc1)S(=O)(=O)c1ccc(OC)c(OC)c1 ; NF-kB reporter = 0.684

Form: compound = Cc1cc2ncc3c(n2n1)CCN(S(=O)(=O)N(C)C)C3 ; NF-kB reporter = 0.989

Form: compound = CC(C)Sc1ccc(CC(=O)NC2CCN(c3cc4c(nn3)CCCC4)CC2)cc1 ; NF-kB reporter = 0.556

Form: compound = CC(C)Oc1ccc(Br)cc1C=C(C#N)c1nn(CCO)c(N)c1C#N ; NF-kB reporter = 1.33

Form: compound = N#Cc1c(N=Cc2ccc(Cl)cc2)sc2c1CCCC2 ; NF-kB reporter = 0.912

----------
# System: RAW-Dual (murine macrophage reporter line)
# procedure text: NF-kB reporter (SEAP) activity fold change vs agonist alone; higher = enhanced NF-kB activity
# experimental parameters: modulator concentration 10 µM; agonist: CpG ODN 1826 0.5 ug/mL
Items are presented alongside their recorded NF-kB reporter.
# print the numeric value only

* Cc1ccc(S(=O)(=O)Nc2cc(-c3c(O)ccc4ccccc34)c(O)c3ccccc23)cc1 | 0.941
* COc1ccc(C)c2sc(=NC(=O)c3ccccc3)n(C)c12 | 1.16
* COc1ccc(Br)cc1C(=O)Nc1cc(C(F)(F)F)cc(C(F)(F)F)c1 | 1.2
* COc1ccc(C=CC(=O)Nc2sc(C(=O)OC(C)C)c(C)c2C(N)=O)cc1 | 0.846

Now take the following molecule into account.
Form: molecule = O=C(Nc1cc(C(F)(F)F)cc(C(F)(F)F)c1)c1cc2ccccc2o1 ; NF-kB reporter = 0.961

----------
# Test system: RAW-Dual (murine macrophage reporter line)
# procedure text: NF-kB reporter (SEAP) activity fold change vs agonist alone; higher = enhanced NF-kB activity
# experimental parameters: modulator concentration 10 µM; agonist: MPLA […]
quantity name: NF-kB reporter
# print the numeric value only

Please review the entries below; each comes with its answer.
- O=C(Cn1c(=O)oc2ccccc21)N1Cc2cncnc2C1: 0.988
- Cc1cc(CCC(=O)N(C)C2CN(c3ccc4nnc(C)n4n3)C2)ccc1F: 0.918
- COc1ccc(N(CC(=O)N2CCc3ccccc3C2)S(C)(=O)=O)cc1Cl: 0.987

Now take the following compound into account.
Form: compound = CC(C)c1ccc(OCC(=O)NCc2nnc3n2CCC(C(F)(F)F)C3)cc1 (stereo not given) ; NF-kB reporter = 0.988

----------
# Tested on: RAW-Dual (murine macrophage reporter line)
# procedure text: NF-kB reporter (SEAP) activity fold change vs agonist alone; higher = enhanced NF-kB activity
# experimental parameters: modulator concentration 10 µM; agonist: MPLA […]
quantity name: NF-kB reporter
# print the numeric value only

- CNc1nc(Nc2ccc(C)c(C)c2)c2nccnc2n1: 1.09

Form: compound = Cc1cc2ncc3c(n2n1)CCN(C(=O)c1cnoc1C)C3 ; NF-kB reporter = 1.02

Form: compound = CN(C)CCOC1=Cc2ccccc2Sc2ccc(Cl)cc21 ; NF-kB reporter = 1.11

Form: compound = COC(=O)C1C(c2ccccc2)C(C(=O)Oc2ccc(C(C)=O)cc2)C1c1ccccc1 (configuration not stated) ; NF-kB reporter = 1.16

Form: compound = OCCN(CCO)c1nc(N2CCCCC2)c2nc(N(CCO)CCO)nc(N3CCCCC3)c2n1 ; NF-kB reporter = 1.06

Form: compound = CN1[C@@H]2CC[C@H]1C[C@@H](OC(c1ccccc1)c1ccccc1)C2.CS(=O)(=O)O ; NF-kB reporter = 1.48
